- Test system: GammaA3
- MEASUREMENT NOTES: Cell cycle analysis by flow cytometry
- Assay type: cell-based, mouse
- SETTINGS: IC50 concentration, 96 h
- Protocol: CycleTEST™ PLUS DNA Reagent Kit (Becton Dickinson GmbH, Heidelberg, Germany) for cell cycle analysis was used, according to the instructions of the manufacturer. Briefly, the cells were harvested with trypsin, washed with PBS, and resuspended in CycleTEST Buffer. The cells were centrifuged and resuspended in solution A. After incubation for 10 min at room temperature, solution B was added and incubated. After adding solution C, the samples were incubated at 4°C protected from light. […]
PROPERTY: Cells in G1 phase (%)
# number only, unit % dropped from output

[[record]]
compound = "CSc1nc(NCCc2ccc(Cl)cc2)c2cnn(CC(Cl)c3ccccc3)c2n1 (stereo not shown)"
test_target = "GammaA3"
property = "Cells in G1 phase"
numeric_value = 59.6


Q) Identify Cells in G1 phase associated with the compound CSc1nc(NCc2ccccc2)c2cnn(CC(Cl)c3ccc(Cl)cc3)c2n1 (stereo not shown)
A) 89

Q) Report measured Cells in G1 phase; entry is CSc1nc(Nc2cccc(F)c2)c2cnn(CC(Cl)c3ccc(F)cc3)c2n1 (stereo not shown)
A) 76.1
